B1: library; a variant is named by its letters at N, in order (parent)
chain: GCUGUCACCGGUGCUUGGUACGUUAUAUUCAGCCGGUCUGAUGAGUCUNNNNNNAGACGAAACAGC

Variants of: B1
experimental.details: normalized RNA/DNA level without ligand (relative to sTRSVctl = 100) (log10 (% of sTRSVctl)); HEK293T overexpressing SLC46A1; higher = less ribozyme self-cleavage, higher mRNA level
measurement.parameters: without (6R,S)-folinic acid; ligand present: no
reported.endpoint: normalized RNA/DNA level without ligand (log10)

# mutations, recorded.value
records = [
    ("CACAGA", 2.03),
    ("CACCCA", 2.01),
    ("AGGUGA", 1.96),
    ("GCGCUU", 2.05),
    ("CAGUGA", 1.98),
    ("UCCUUU", 2.07),
    ("UUCUCA", 2.02),
    ("AUAGCU", 2),
    ("AGAGCA", 1.98),
    ("UAACGG", 1.71),
    ("UCAAAU", 1.96),
]
